# measurement_notes: Behavior of the 1-alkylimidazoles toward 30% strength NaCl solution (shaking funnel, phase separation, Karl-Fischer and GC analysis)
# conditions_used: free 1-alkylimidazole; 5 g imidazole shaken with 5 g solution of 30 g NaCl in 100 g water; lower phase extracted, GC with internal standard
test_readout: Solubility of free base in NaCl solution in % (%)
Number only, in %; omit the unit.

{"smiles_repr": "Cn1ccnc1", "measurement_units": "%", "value_measured": 100}

Recorded Solubility of free base in NaCl solution in % of CCCn1ccnc1 , please.
3

Recorded Solubility of free base in NaCl solution in % of CCn1ccnc1 , please.
100

Recorded Solubility of free base in NaCl solution in % of CCCCn1ccnc1 , please.
0.2

====

# measurement_notes: Behavior of the 1-alkylimidazoles toward 30% strength NaCl solution (shaking funnel, phase separation, Karl-Fischer and GC analysis)
# conditions_used: water determination on upper (imidazole) phase by Karl-Fischer titration after shaking with NaCl solution

{"compound": "Cn1ccnc1 [Me (comp.)]", "Solubility of water in imidazole in %": "ca. 50%"}
{"compound": "CCn1ccnc1 [Et (comp.)]", "Solubility of water in imidazole in %": "ca. 50%"}
{"compound": "CCCCn1ccnc1 [nBu, n-butylimidazole]", "Solubility of water in imidazole in %": "16%"}
{"compound": "CCCn1ccnc1 [nPr, n-propylimidazole]", "Solubility of water in imidazole in %": "30%"}
